Recorded Inhibition, one value per entry.
system: Plasmodium falciparum; assay: GSK_TCMDC: Inhibition of Plasmodium falciparum 3D7 in whole red blood cells, using parasite LDH activity as an index of growth. Test compounds present at 2uM; type: functional
experimental-endpoint: Inhibition (%)

- molecule: "C[C@H]1CN(Cc2ccc(-c3cccc(CNC(=O)c4cccc(C(=O)c5ccc(Cl)c(Cl)c5)c4)c3)s2)CCN1.O=C(O)C(F)(F)F"
  experimental-endpoint: "Inhibition"
  unit-info: "%"
  val: 99
- molecule: "O=C(c1ccc([N+](=O)[O-])o1)N1CCN(c2nc3c(F)cc(F)cc3s2)CC1"
  experimental-endpoint: "Inhibition"
  unit-info: "%"
  val: 93
- molecule: "FC(F)(F)c1ccc2[nH]ccc(=NN=Cc3ccc(Cl)cc3)c2c1"
  experimental-endpoint: "Inhibition"
  unit-info: "%"
  val: 100
- molecule: "Cl.Oc1cccc(Nc2ccnc3cc(-c4cc5ccccc5o4)ccc23)c1"
  experimental-endpoint: "Inhibition"
  unit-info: "%"
  val: 100
- molecule: "CCN(CC)CCCN(CCCN(CC)CC)c1cc(C)nc(Nc2ccc(Cl)cc2)n1.O=C(O)C(=O)O"
  experimental-endpoint: "Inhibition"
  unit-info: "%"
  val: 100
- molecule: "Cc1cc(NC(=O)Nc2cccc(C#N)c2)c2ccccc2n1"
  experimental-endpoint: "Inhibition"
  unit-info: "%"
  val: 100
- molecule: "CN(c1ccc(F)cc1)S(=O)(=O)c1ccc(Cl)c(C(=O)Nc2cccc(C#N)c2)c1"
  experimental-endpoint: "Inhibition"
  unit-info: "%"
  val: 95
- molecule: "Cc1ccc(NC(=O)NC2CCN(c3ccnc4ccccc34)C2)cc1.O=C(O)C(F)(F)F (stereo not drawn)"
  experimental-endpoint: "Inhibition"
  unit-info: "%"
  val: 99
- molecule: "CC(=O)c1ccc(-n2ccnc2)cc1"
  experimental-endpoint: "Inhibition"
  unit-info: "%"
  val: 92
- molecule: "CCCNC(=O)C1CCN(C(c2ccccc2)c2ccc(Cl)c(Cl)c2)CC1 (stereo not drawn)"
  experimental-endpoint: "Inhibition"
  unit-info: "%"
  val: 90
- molecule: "Clc1ccc(C=NN=c2cc[nH]c3ccccc23)cc1"
  experimental-endpoint: "Inhibition"
  unit-info: "%"
  val: 100
- molecule: "CC(C)c1cc(Oc2c(I)cc(CCCc3ncc[nH]3)cc2I)ccc1O.Cl"
  experimental-endpoint: "Inhibition"
  unit-info: "%"
  val: 88
- molecule: "Cc1c2ccncc2c(C)c2c1[nH]c1cc(Cc3ccccc3)c(O)cc12"
  experimental-endpoint: "Inhibition"
  unit-info: "%"
  val: 100
- molecule: "COc1ccccc1N1CCN(CCCCNC(=O)c2ccc(NC(=O)c3cc4ccccc4o3)cc2)CC1"
  experimental-endpoint: "Inhibition"
  unit-info: "%"
  val: 84
- molecule: "Cc1ccccc1N1CCN(c2ncc(C(=O)NC3CC3)cc2Cl)CC1.O=C(O)C(F)(F)F"
  experimental-endpoint: "Inhibition"
  unit-info: "%"
  val: 91
- molecule: "Cc1nc2ccc3ccc(CNc4ccc5c(c4)CN([C@@H](CCC(=O)O)C(=O)O)C5=O)cc3c2c(=O)[nH]1 [OSI-7904]"
  experimental-endpoint: "Inhibition"
  unit-info: "%"
  val: 94
- molecule: "O=C(/C=C/c1ccc(Cl)c(Cl)c1)N1CCC(CN2CCC(Cc3nc4ccccc4[nH]3)CC2)CC1"
  experimental-endpoint: "Inhibition"
  unit-info: "%"
  val: 100
- molecule: "CCN(CC)CCNC(=O)c1ccc(NC(=O)c2cc(-c3ccncc3)nc3ccccc23)cc1"
  experimental-endpoint: "Inhibition"
  unit-info: "%"
  val: 97
- molecule: "CCOc1ccc(-c2nonc2NC(=O)c2ccco2)cc1OCC"
  experimental-endpoint: "Inhibition"
  unit-info: "%"
  val: 97
- molecule: "COc1ccc2nccc([C@@H](O)CN3CCC(NC(=O)COc4nc(SCc5ccc(F)cc5)nc5c4CCC5)CC3)c2c1"
  experimental-endpoint: "Inhibition"
  unit-info: "%"
  val: 96
- molecule: "Cc1cccc(C(=O)Nc2ccnc(N(C)CCCN(C)Cc3cccc(C#N)c3)c2)c1.O=C(O)C(F)(F)F"
  experimental-endpoint: "Inhibition"
  unit-info: "%"
  val: 92
- molecule: "FC(F)(F)c1ccc2[nH]c(-c3ccc(-c4cccc(CNCc5cnn(-c6ccccc6)n5)c4)s3)nc2c1.O=C(O)C(F)(F)F"
  experimental-endpoint: "Inhibition"
  unit-info: "%"
  val: 100
- molecule: "O=c1cc(NCCCNCc2cc(Cl)c(Cl)cc2Cl)[nH]c2ccccc12"
  experimental-endpoint: "Inhibition"
  unit-info: "%"
  val: 93
- molecule: "O=C(NC1CCCc2ccccc21)[C@@H]1CCCN1C(=O)c1ccc(O)c(-c2ccc(Cl)c(Cl)c2)c1 (stereo partly drawn)"
  experimental-endpoint: "Inhibition"
  unit-info: "%"
  val: 99
- molecule: "CCOC(=O)NC1=NC(=N)N(OCCCOc2cc(Cl)c(Cl)cc2Cl)C(C)(C)N1"
  experimental-endpoint: "Inhibition"
  unit-info: "%"
  val: 97
- molecule: "O=C(NCCc1ccccc1)N(Cc1ccc(-c2cccc(CN3CCNCC3)c2)cc1)C1CCN(Cc2ccccc2)CC1.O=C(O)C(F)(F)F"
  experimental-endpoint: "Inhibition"
  unit-info: "%"
  val: 90
- molecule: "O=C(O)C(F)(F)F.c1ccc(CCNCc2cccc(-c3ccccc3CNCc3ccc4c(c3)OCO4)c2)nc1"
  experimental-endpoint: "Inhibition"
  unit-info: "%"
  val: 90
- molecule: "COc1ccccc1C1CC(c2ccccc2)=NN1C(=O)c1ccccc1 (stereo not drawn)"
  experimental-endpoint: "Inhibition"
  unit-info: "%"
  val: 100
